Reference source: PubChem BioAssay AID1963830

# Tested on: 922993-354-T-J3-PDC complex spheroid viability
# procedure summary: Anticancer human tumor 922993-354-T-J3-PDC patient-derived endometrial carcinoma cell line growth inhibition [POLQ]
# condition summary: second compound 3.16 µM; first compound 0.00316 µM; active compounds read low
property name: viability, T/C (%)
Report only the number, with the unit % understood.

Guide cases for viability, T/C, answers given:
compound | unit descriptor | viability, T/C
CCc1c2c(nc3ccc(O)cc13)-c1cc3c(c(=O)n1C2)COC(=O)[C@]3(O)CC + Nc1ccc(C#CCN(C(=O)Cc2ncc(C(F)(F)F)cc2C(F)(F)F)c2ccc(F)cc2)nn1 | % | 95.6
CCc1c2c(nc3ccc(O)cc13)-c1cc3c(c(=O)n1C2)COC(=O)[C@]3(O)CC + Cc1cccc(N(C)C(=O)C2C(O)CCN2c2nc(C)cc(C(F)(F)F)c2C#N)c1 | % | 90.9
COc1cccc(OCCCN)c1-c1cc(Nc2cnc(C#N)cn2)n[nH]1 + Nc1ccc(C#CCN(C(=O)Cc2ncc(C(F)(F)F)cc2C(F)(F)F)c2ccc(F)cc2)nn1 | % | 96.1
C=CCn1c(=O)c2cnc(Nc3ccc(N4CCN(C)CC4)cc3)nc2n1-c1cccc(C(C)(C)O)n1 + Nc1ccc(C#CCN(C(=O)Cc2ncc(C(F)(F)F)cc2C(F)(F)F)c2ccc(F)cc2)nn1 | % | 100
CC[C@@]1(O)C(=O)OCc2c1cc1n(c2=O)Cc2cc3c(CN(C)C)c(O)ccc3nc2-1 + Cc1cccc(N(C)C(=O)C2C(O)CCN2c2nc(C)cc(C(F)(F)F)c2C#N)c1 | % | 94.1

// query viability, T/C value for entry C=CCn1c(=O)c2cnc(Nc3ccc(N4CCN(C)CC4)cc3)nc2n1-c1cccc(C(C)(C)O)n1 + COC1C(OC(N)=O)C(O)C(Oc2ccc3c(O)c(NC(=O)c4ccc(O)c(CC=C(C)C)c4)c(=O)oc3c2C)OC1(C)C
94.4

Now give it for COc1cccc(OCCCN)c1-c1cc(Nc2cnc(C#N)cn2)n[nH]1 + COC1C(OC(N)=O)C(O)C(Oc2ccc3c(O)c(NC(=O)c4ccc(O)c(CC=C(C)C)c4)c(=O)oc3c2C)OC1(C)C too.
103

Try CC[C@@]1(O)C(=O)OCc2c1cc1n(c2=O)Cc2cc3c(CN(C)C)c(O)ccc3nc2-1 + Nc1ccc(C#CCN(C(=O)Cc2ncc(C(F)(F)F)cc2C(F)(F)F)c2ccc(F)cc2)nn1 next.
103

Proceed to Cn1ncnc1[C@H]1c2n[nH]c(=O)c3cc(F)cc(c23)N[C@@H]1c1ccc(F)cc1 + Cc1cccc(N(C)C(=O)C2C(O)CCN2c2nc(C)cc(C(F)(F)F)c2C#N)c1
99.9

Now consider CC[C@@]1(O)C(=O)OCc2c1cc1n(c2=O)Cc2cc3c(CN(C)C)c(O)ccc3nc2-1 + COC1C(OC(N)=O)C(O)C(Oc2ccc3c(O)c(NC(=O)c4ccc(O)c(CC=C(C)C)c4)c(=O)oc3c2C)OC1(C)C .
89.7

Now give it for COc1cccc(OCCCN)c1-c1cc(Nc2cnc(C#N)cn2)n[nH]1 + Cc1cccc(N(C)C(=O)C2C(O)CCN2c2nc(C)cc(C(F)(F)F)c2C#N)c1 too.
103

Try C=CCn1c(=O)c2cnc(Nc3ccc(N4CCN(C)CC4)cc3)nc2n1-c1cccc(C(C)(C)O)n1 + Cc1cccc(N(C)C(=O)C2C(O)CCN2c2nc(C)cc(C(F)(F)F)c2C#N)c1 next.
99.9

Thanks! And Cn1ncnc1[C@H]1c2n[nH]c(=O)c3cc(F)cc(c23)N[C@@H]1c1ccc(F)cc1 + Nc1ccc(C#CCN(C(=O)Cc2ncc(C(F)(F)F)cc2C(F)(F)F)c2ccc(F)cc2)nn1 ?
93

Please do the same for Cn1ncnc1[C@H]1c2n[nH]c(=O)c3cc(F)cc(c23)N[C@@H]1c1ccc(F)cc1 + COC1C(OC(N)=O)C(O)C(Oc2ccc3c(O)c(NC(=O)c4ccc(O)c(CC=C(C)C)c4)c(=O)oc3c2C)OC1(C)C as well.
89.6

Again, but for CCc1c2c(nc3ccc(O)cc13)-c1cc3c(c(=O)n1C2)COC(=O)[C@]3(O)CC + COC1C(OC(N)=O)C(O)C(Oc2ccc3c(O)c(NC(=O)c4ccc(O)c(CC=C(C)C)c4)c(=O)oc3c2C)OC1(C)C
76.3

###

# System: 922993-354-T-J3-PDC complex spheroid viability
# procedure summary: Anticancer human tumor 922993-354-T-J3-PDC cell line growth inhibition [POLQ];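 further: spheroids exposed to the agents for one week; 100% = DMSO vehicle control wells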
# condition summary: second compound 10 µM; first compound 10 µM; active compounds read low
property name: viability, T/C (%)
Respond with the bare value in %.

Here is how some molecules turned out for viability, T/C.
molecule | viability, T/C [%]
CCc1cc2c(N3CCc4c(cc(Cn5ccnc5)cc4-c4cn(C)nc4C(F)(F)F)C3=O)ccnc2c(OC)n1 + Cc1cccc(N(C)C(=O)C2C(O)CCN2c2nc(C)cc(C(F)(F)F)c2C#N)c1 | 102
O=C(Nc1ccc(O)c(NS(=O)(=O)c2ccc(F)cc2)c1)c1ccc(-c2ccccc2)cc1 + COC1C(OC(N)=O)C(O)C(Oc2ccc3c(O)c(NC(=O)c4ccc(O)c(CC=C(C)C)c4)c(=O)oc3c2C)OC1(C)C | 96.5

Sample COc1cc2cc(C(=O)CCC(=O)O)sc2cc1OC + Nc1ccc(C#CCN(C(=O)Cc2ncc(C(F)(F)F)cc2C(F)(F)F)c2ccc(F)cc2)nn1 — what was its viability, T/C?
78.8

###

The entries below are paired with their reported viability, T/C.
# System: 922993-354-T-J3-PDC complex spheroid viability
# procedure summary: Anticancer human tumor 922993-354-T-J3-PDC cell line growth inhibition [POLQ];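 further: spheroids exposed to the agents for one week; 100% = DMSO vehicle control wells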
# condition summary: second compound 3.16 µM; first compound 1 µM; active compounds read low
Give the value in % but do not write % after it.

Some compounds with known viability, T/C results, for comparison:
compound | target or test system | property name | value measured
COc1ccc([C@@H](O)c2cc(-c3ncnc4cc(N5CCOCC5)ccc34)c(F)cc2Cl)nn1 + Cc1cccc(N(C)C(=O)C2C(O)CCN2c2nc(C)cc(C(F)(F)F)c2C#N)c1 | 922993-354-T-J3-PDC complex spheroid viability | viability, T/C | 86.9
COc1cc2cc(C(=O)CCC(=O)O)sc2cc1OC + Cc1cccc(N(C)C(=O)C2C(O)CCN2c2nc(C)cc(C(F)(F)F)c2C#N)c1 | 922993-354-T-J3-PDC complex spheroid viability | viability, T/C | 103

Lab note: next compound to report on.
May I ask what viability, T/C has been recorded for COc1cccc2c1C(=O)c1c(O)c3c(c(O)c1C2=O)CC(O)(C(=O)CO)CC3OC1CC(N)C(O)C(C)O1 (stereo not drawn) + Nc1ccc(C#CCN(C(=O)Cc2ncc(C(F)(F)F)cc2C(F)(F)F)c2ccc(F)cc2)nn1 ?
75.4

###

# System: 922993-354-T-J3-PDC complex spheroid viability
# procedure summary: Anticancer human tumor 922993-354-T-J3-PDC cell line growth inhibition [POLQ];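 further: spheroids exposed to the agents for one week; 100% = DMSO vehicle control wells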
# condition summary: second compound 10 µM; first compound 0.01 µM; active compounds read low
property name: viability, T/C (%)
Please give a number only; it is taken to be in %.

compound | target or test system | unit descriptor | value measured
Cn1ncnc1[C@H]1c2n[nH]c(=O)c3cc(F)cc(c23)N[C@@H]1c1ccc(F)cc1 + Nc1ccc(C#CCN(C(=O)Cc2ncc(C(F)(F)F)cc2C(F)(F)F)c2ccc(F)cc2)nn1 | 922993-354-T-J3-PDC complex spheroid viability | % | 85.7
CCc1c2c(nc3ccc(O)cc13)-c1cc3c(c(=O)n1C2)COC(=O)[C@]3(O)CC + Cc1cccc(N(C)C(=O)C2C(O)CCN2c2nc(C)cc(C(F)(F)F)c2C#N)c1 | 922993-354-T-J3-PDC complex spheroid viability | % | 34.1
CC[C@@]1(O)C(=O)OCc2c1cc1n(c2=O)Cc2cc3c(CN(C)C)c(O)ccc3nc2-1 + COC1C(OC(N)=O)C(O)C(Oc2ccc3c(O)c(NC(=O)c4ccc(O)c(CC=C(C)C)c4)c(=O)oc3c2C)OC1(C)C | 922993-354-T-J3-PDC complex spheroid viability | % | 84.4

So what's the measured viability, T/C for this one? CCc1c2c(nc3ccc(O)cc13)-c1cc3c(c(=O)n1C2)COC(=O)[C@]3(O)CC + COC1C(OC(N)=O)C(O)C(Oc2ccc3c(O)c(NC(=O)c4ccc(O)c(CC=C(C)C)c4)c(=O)oc3c2C)OC1(C)C
38.8

Now consider CCc1c2c(nc3ccc(O)cc13)-c1cc3c(c(=O)n1C2)COC(=O)[C@]3(O)CC + Nc1ccc(C#CCN(C(=O)Cc2ncc(C(F)(F)F)cc2C(F)(F)F)c2ccc(F)cc2)nn1 and answer again.
63.9
